# Tested on: Plasmodium falciparum
# TEST_NAME: GSK_TCMDC: Inhibition of Plasmodium falciparum 3D7 in whole red blood cells, using parasite LDH activity as an index of growth. Test compounds present at 2uM
# Format: functional
MEASUREMENT_KIND: Inhibition (%)

[[record]]
compound = "CN(C)CCNCc1cccc(-c2ccc3c(Nc4cc(O)c(Cl)cc4F)ccnc3c2)c1"
endpoint_value = 99

[[record]]
compound = "O=C(C=Cc1ccc(Cl)c(Cl)c1)NCCCCCN1CCC(CCNC(=O)C(c2ccccc2)c2ccccc2)CC1"
endpoint_value = 90

[[record]]
compound = "COc1cc(-c2cc(-c3ccc(S(C)(=O)=O)cc3)cnc2N)ccc1O"
endpoint_value = 97

[[record]]
compound = "Cc1onc(-c2c(F)cccc2Cl)c1C(=O)Nc1ccccc1I"
endpoint_value = 99

[[record]]
compound = "Cc1cccc(-c2ccc(NC(=O)C3CCN(Cc4cccc(O)c4)CC3)cc2)c1"
endpoint_value = 92

[[record]]
compound = "Cl.O=c1cc(NCCCNCc2ccc(Cl)c(Cl)c2)[nH]c2cc(F)cc(F)c12"
endpoint_value = 100

[[record]]
compound = "CN1CCN(CCCN(Cc2csc(-c3ccc(CNCc4ccccc4)cc3)n2)S(=O)(=O)c2ccc(F)cc2)CC1.O=C(O)C(F)(F)F"
endpoint_value = 100

[[record]]
compound = "CC(Cc1ccc(OCCCCOc2ccccc2)cc1)NCCc1ccc(Oc2ccccc2)cc1 (centres undefined)"
endpoint_value = 89

[[record]]
compound = "COc1cc(NCCCNC(=O)c2cc3c(Cl)cc(Cl)cc3[nH]2)nc2ccccc12"
endpoint_value = 100


Data origin: ChEMBL document CHEMBL1157539
